Task for the reader: assign each of the following binders its reported OD450.
biological target: T1, human MSLN-R3-his protein (human, UniProt Q13421 487-598); assay: ELISA on coated antigen, antibody 0.002 nM
T1 construct: it is put last here; also called human MSLN-R3 protein; hMSLN-R3-his; not shown: His tag
T1 sequence (Q13421 495-606): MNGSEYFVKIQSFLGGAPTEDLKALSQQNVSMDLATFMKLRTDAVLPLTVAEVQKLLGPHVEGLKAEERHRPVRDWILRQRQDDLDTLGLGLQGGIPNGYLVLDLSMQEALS
Please don't drop the unit; write it after the number.

Give the reported value of OD450 for this record: S009-F7.67.12 (antibody, human IgG1, kappa, V domains shown, Human-murine chimeric antibody, human IgG1 heavy and kappa light constant regions) VH: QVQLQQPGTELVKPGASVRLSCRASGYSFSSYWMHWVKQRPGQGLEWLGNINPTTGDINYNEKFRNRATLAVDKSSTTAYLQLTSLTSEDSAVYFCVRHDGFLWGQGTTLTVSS VL: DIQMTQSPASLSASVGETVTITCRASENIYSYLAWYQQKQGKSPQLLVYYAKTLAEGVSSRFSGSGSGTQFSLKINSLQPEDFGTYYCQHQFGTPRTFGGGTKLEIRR
0.24 OD

Give the reported value of OD450 for this record: S009-F7.44.20 (antibody, human IgG1, kappa, V domains shown, Human-murine chimeric antibody, human IgG1 heavy and kappa light constant regions) VH: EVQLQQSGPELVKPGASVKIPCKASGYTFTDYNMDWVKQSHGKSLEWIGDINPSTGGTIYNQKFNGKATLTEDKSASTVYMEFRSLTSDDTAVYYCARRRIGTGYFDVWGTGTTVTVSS VL: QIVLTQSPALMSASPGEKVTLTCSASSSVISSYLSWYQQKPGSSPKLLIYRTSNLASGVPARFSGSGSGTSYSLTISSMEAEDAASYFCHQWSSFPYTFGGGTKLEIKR
0.27 OD

Give the reported value of OD450 for this record: S009-F7.23.19 (antibody, human IgG1, kappa, V domains shown, Human-murine chimeric antibody, human IgG1 heavy and kappa light constant regions) VH: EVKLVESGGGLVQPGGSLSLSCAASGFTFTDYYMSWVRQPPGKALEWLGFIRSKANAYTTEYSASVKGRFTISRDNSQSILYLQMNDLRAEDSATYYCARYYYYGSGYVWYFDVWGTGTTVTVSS VL: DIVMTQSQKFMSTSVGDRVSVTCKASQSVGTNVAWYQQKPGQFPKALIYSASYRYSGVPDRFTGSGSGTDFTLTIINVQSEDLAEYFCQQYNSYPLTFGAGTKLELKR
0.25 OD

Give the reported value of OD450 for this record: S009-F7.25.19 (antibody, human IgG1, kappa, V domains shown, Human-murine chimeric antibody, human IgG1 heavy and kappa light constant regions) VH: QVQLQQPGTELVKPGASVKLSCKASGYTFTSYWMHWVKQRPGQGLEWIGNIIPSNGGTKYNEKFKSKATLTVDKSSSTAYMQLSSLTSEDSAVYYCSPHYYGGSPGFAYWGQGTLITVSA VL: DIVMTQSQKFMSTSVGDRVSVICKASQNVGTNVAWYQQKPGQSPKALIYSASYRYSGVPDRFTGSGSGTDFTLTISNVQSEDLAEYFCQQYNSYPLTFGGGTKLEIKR
0.9 OD

Give the reported value of OD450 for this record: S009-F7.11.11 (antibody, human IgG1, kappa, V domains shown, Human-murine chimeric antibody, human IgG1 heavy and kappa light constant regions) VH: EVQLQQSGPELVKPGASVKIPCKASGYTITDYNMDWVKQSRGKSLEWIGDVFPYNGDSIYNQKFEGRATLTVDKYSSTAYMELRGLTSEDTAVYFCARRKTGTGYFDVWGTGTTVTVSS VL: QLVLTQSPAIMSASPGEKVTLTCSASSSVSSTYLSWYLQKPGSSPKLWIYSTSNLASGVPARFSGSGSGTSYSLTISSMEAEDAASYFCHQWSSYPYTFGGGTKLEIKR
0.09 OD
